Task for the reader: assign each of the following compounds its reported IC50.
Test system: MEL-28
experiment_description: Inhibition of cell growth by counting cells, MEL-28
Assay type: cell-based, human
assay_conditions: Homo sapiens, SK-MEL-28, 72 h; three days of incubation; read-out: IC50 (molar) MEL-28
Numbers only, in nM.

[
  {
    "compound": "CCCCCCCC(=O)Oc1c(C)c2c(c3c1[C@H]1SC[C@]4(NCCc5cc(OC(=O)OC(C)(C)C)c(OC)cc54)C(=O)OC[C@@H]3N3C1[C@H]1c4c(cc(C)c(OC)c4OC(=O)CCCCCCC)C[C@@H]([C@@H]3C#N)N1C)OCO2 (stereo partly shown)",
    "IC50 / nM": 463
  },
  {
    "compound": "CCCCCCCCCCCCCCCC(=O)Oc1c(C)c2c(c3c1[C@H]1SC[C@]4(NCCc5cc(OC(=O)OC(C)(C)C)c(OC)cc54)C(=O)OC[C@@H]3N3C1[C@H]1c4c(cc(C)c(OC)c4O)C[C@@H]([C@@H]3C#N)N1C)OCO2 (stereo partly shown)",
    "IC50 / nM": 469
  },
  {
    "compound": "CCOc1cc2c(cc1OC)[C@@]1(CS[C@@H]3c4c(OC(C)=O)c(C)c5c(c4[C@H](COC1=O)N1C3[C@H]3c4c(cc(C)c(OC)c4O)C[C@@H]([C@@H]1C#N)N3C)OCO5)NCC2 (stereo partly shown)",
    "IC50 / nM": 0.125
  }
]

With those in mind, consider the next compound.
Please report the measured IC50 for CCCCCCCC(=O)Oc1cc2c(cc1OC)[C@@]1(CS[C@@H]3c4c(OC(C)=O)c(C)c5c(c4[C@H](COC1=O)N1C3[C@@H]3N[C@@H](Cc4cc(C)c(OC)c(O)c43)[C@@H]1C#N)OCO5)NCC2 (stereo partly shown)
0.113

----------
Tested on: IGROV-ET
experiment_description: Inhibition of cells growth by colorimetric assay (SRB), IGROV-ET
Type: cell-based
assay_conditions: Homo sapiens, 48 h, read-out: IGROV-ET LC50, SRB assay, 48 hours exposure
Experimental: 2°.—Inhibition of Cells Growth by Colorimetric Assay. A colorimetric type of assay, using sulforhodamine B (SRB) reaction has been adapted for a quantitative measurement of cell growth and viability [following the technique described by Philip Skehan, et al. (1990), New colorimetric cytotoxicity assay for anticancer drug screening, J. Natl. Cancer Inst., 82:1107-1112] […] The values for mean+/−SD of data from triplicate wells are calculated. […]
Task for the reader: assign each of the following compounds its reported CC50.

Example compounds with recorded CC50:
[
  {
    "compound": "COc1cc2c(cc1O)CCN[C@]21CS[C@@H]2c3c(O)c(C)c4c(c3[C@H](COC1=O)N1C2[C@H]2c3c(cc(C)c(OC)c3O)C[C@@H]([C@@H]1O)N2C)OCO4 (stereo partly drawn) [Et-701]",
    "target": "IGROV-ET",
    "CC50": "3.75 µM"
  },
  {
    "compound": "COc1cc2c(cc1O)CCN[C@]21CS[C@@H]2c3c(OC(=O)C(F)(F)C(F)(F)C(F)(F)F)c(C)c4c(c3[C@H](COC1=O)N1C2[C@H]2c3c(cc(C)c(OC)c3O)C[C@@H]([C@@H]1O)N2C)OCO4 (stereo partly drawn) [Compound 167]",
    "target": "IGROV-ET",
    "CC50": "5.24 µM"
  },
  {
    "compound": "COc1cc2c(cc1O)CCN[C@]21CS[C@@H]2c3c(OC(=O)CCCCC4SCC5NC(=O)NC54)c(C)c4c(c3[C@H](COC1=O)N1C2[C@H]2c3c(cc(C)c(OC)c3OC(=O)CCCCC3SCC5NC(=O)NC53)C[C@@H]([C@@H]1O)N2C)OCO4 (stereo partly drawn) [Compound 172]",
    "target": "IGROV-ET",
    "CC50": "0.853 µM"
  },
  {
    "compound": "C=COC(=O)Oc1c(C)c2c(c3c1[C@H]1SC[C@]4(NCCc5cc(OC(=O)OC(C)(C)C)c(OC)cc54)C(=O)OC[C@@H]3N3C1[C@H]1c4c(cc(C)c(OC)c4O)C[C@@H]([C@@H]3O)N1C)OCO2 (stereo partly drawn) [Compound 176]",
    "target": "IGROV-ET",
    "CC50": "3.45 µM"
  },
  {
    "compound": "COc1cc2c(cc1OC(=O)OC(C)(C)C)CCN[C@]21CS[C@@H]2c3c(OC(=O)[C@H](C)NC(=O)OC(C)(C)C)c(C)c4c(c3[C@H](COC1=O)N1C2[C@H]2c3c(cc(C)c(OC)c3O)C[C@@H]([C@@H]1O)N2C)OCO4 (stereo partly drawn) [Compound 175]",
    "target": "IGROV-ET",
    "CC50": "1.72 µM"
  }
]

With those in mind, consider the next compound.
Provide measured CC50 on IGROV-ET for COc1cc2c(cc1O)CCN[C@]21CS[C@@H]2c3c(OC(=O)CCCCC4SCC5NC(=O)NC54)c(C)c4c(c3[C@H](COC1=O)N1C2[C@H]2c3c(cc(C)c(OC)c3O)C[C@@H]([C@@H]1O)N2C)OCO4 (stereo partly drawn) [Compound 171] please.
10.6 µM

Numbers sourced from patent US7759345B2.
